Assay: Rifampicin-doxycycline interaction study
Conditions: female, CD-1, mouse, in vivo, po, Doxycycline AUC[0-8] Mean (SD), rifampicin single dose plus doxycycline in diet (2000 ppm, 7 days); plasma
reported.property: AUC(0-t) (ng·h/mL)
Give just the number in ng·h/mL; leave the unit off.

Need AUC(0-t) of `C[C@H]1c2cccc(O)c2C(=O)C2=C(O)[C@]3(O)C(=O)C(C(N)=O)=C(O)[C@@H](N(C)C)[C@@H]3[C@@H](O)[C@@H]21` , thanks. 4780

----------
Experiment: in vivo
Settings: CD-1, mouse, iv, 5 mg/kg
reported.property: Cmax

Need Cmax of `Nc1ncnc2c1ncn2[C@@H]1O[C@H](CNS(=O)(=O)NC(=O)CCCC[C@@H]2SC[C@@H]3NC(=O)N[C@@H]32)[C@@H](O)[C@H]1O` , thanks. 8.72 µM

----------
Assay: Rifampicin-doxycycline interaction study
Conditions: female, CD-1, mouse, in vivo, po, Doxycycline AUC[0-8] Mean (SD), rifampicin steady state + doxycycline in diet; plasma
reported.property: AUC(0-t) (ng·h/mL)
Give just the number in ng·h/mL; leave the unit off.

Need AUC(0-t) of C[C@H]1c2cccc(O)c2C(=O)C2=C(O)[C@]3(O)C(=O)C(C(N)=O)=C(O)[C@@H](N(C)C)[C@@H]3[C@@H](O)[C@@H]21 [doxycycline] , thanks. 3360

----------
Assay: in vivo
Settings: female, NZW, rabbit, lung lesions and plasma, oral, 200 ppm
reported.property: Kp at 7 days
Give only the figure.

Need Kp at 7 days of C[C@H]1c2cccc(O)c2C(=O)C2=C(O)[C@]3(O)C(=O)C(C(N)=O)=C(O)[C@@H](N(C)C)[C@@H]3[C@@H](O)[C@@H]21 [doxycycline] , thanks. 6.1

----------
Assay: in vivo
Conditions: CD-1, mouse, po, 25 mg/kg
reported.property: Cmax (nM)
Give just the number in nM; leave the unit off.

Need Cmax of Nc1ncnc2c1ncn2[C@@H]1O[C@H](CNS(=O)(=O)NC(=O)CCCC[C@@H]2SC[C@@H]3NC(=O)N[C@@H]32)[C@@H](O)[C@H]1O [Bio-AMS] , thanks. 110

----------
Assay: in vivo
Conditions: CD-1, mouse, iv, 5 mg/kg
reported.property: AUC(0-t) (µM·h)
Give just the number in µM·h; leave the unit off.

Need AUC(0-t) of `Nc1ncnc2c1ncn2[C@@H]1O[C@H](CNS(=O)(=O)NC(=O)CCCC[C@@H]2SC[C@@H]3NC(=O)N[C@@H]32)[C@@H](O)[C@H]1O` , thanks. 2.5

----------
Experiment: in vivo
Conditions: CD-1, mouse, 25 mg/kg
reported.property: bioavailability (%)
Give just the number in %; leave the unit off.

Need bioavailability of `Nc1ncnc2c1ncn2[C@@H]1O[C@H](CNS(=O)(=O)NC(=O)CCCC[C@@H]2SC[C@@H]3NC(=O)N[C@@H]32)[C@@H](O)[C@H]1O` , thanks. 2

----------
Test: in vivo
Conditions: female, CD-1, mouse, po, 10 mg/kg, Rifampicin AUC[0-8] Mean (SD)
reported.property: AUC(0-t) (ng·h/mL)
Give just the number in ng·h/mL; leave the unit off.

Need AUC(0-t) of `CO[C@H]1/C=C/O[C@@]2(C)Oc3c(C)c(O)c4c(O)c(c(/C=N/N5CCN(C)CC5)c(O)c4c3C2=O)NC(=O)/C(C)=C\C=C\[C@H](C)[C@H](O)[C@@H](C)[C@@H](O)[C@@H](C)[C@H](OC(C)=O)[C@@H]1C` , thanks. 30700

Values compiled from paper PMC6151865.
